Assay explanation: chemical genetic growth profiling, strain panel (AID 1159580);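 note: tested at 20 µM; growth read once vehicle control cultures reached saturation at 30 °C; 1 = growth at the plate median or of vehicle wells; lower values mean less growth of the strain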
Experimental conditions: S. cerevisiae deletion strains, growth OD, locus YNL233W, strain BNI4, hits give low values
Out of some 5,500 compounds screened, about 2,000 (36%) were called active. Not shown: some 18% with an inconclusive outcome. The list shows a part of the results.
Measure: normalized growth

Worked examples follow.
[[record]]
molecule = "CS(=O)(=O)c1ccc([C@@H](O)[C@@H](CO)NC(=O)C(Cl)Cl)cc1"
value_measured = "0.99 (inactive)"

[[record]]
molecule = "CN(C)C1C(=O)C(C(N)=O)=C(O)C2(O)C(=O)C3=C(O)c4c(O)ccc(Cl)c4C(C)(O)C3CC12 (centres undefined)"
value_measured = "0.999 (inactive)"

[[record]]
molecule = "CN(C)[C@@H]1C(=O)C(C(N)=O)=C(O)[C@@]2(O)C(=O)C3=C(O)c4c(O)ccc(Cl)c4[C@@](C)(O)[C@H]3C[C@@H]12"
value_measured = "0.974 (inactive)"


Problem: // returns reported normalized growth for input CC(=O)OCC(=O)[C@@]1(O)[C@H](C)CC2C3CCC4=CC(=O)C=C[C@]4(C)[C@@]3(F)[C@@H](O)C[C@@]21C (some centres undefined)
Solution: 1.01 (inactive)

* * *

Assay explanation: chemical genetic growth profiling, strain panel (AID 1159580)
Experimental conditions: S. cerevisiae deletion strains, growth OD, locus YOR231W, strain MKK1, hits give low values
Hit rate of the full screen: of about 5,500 compounds, about 2,000 (36%) were called active. Not shown: some 18% with an inconclusive outcome. Some of the results follow.
Class definitions on normalized growth: bottom: < 0.9; middle: ≥ 0.9 and < 1; top: ≥ 1

[[record]]
compound = "CCOC(=O)NNc1nncc2ccccc12"
label = "middle"

[[record]]
compound = "COc1ccc2cc(CCC(C)=O)ccc2c1"
label = "middle"

[[record]]
compound = "Cc1ccc2nc(-c3ccc4c(c3)OCCO4)cn2c1"
label = "middle"

[[record]]
compound = "CCOC(=O)[C@H](CCc1ccccc1)N[C@@H](C)C(=O)N1CCC[C@H]1C(=O)O"
label = "top"


Problem: Exam item: assign CC(=O)O[C@H]1CC[C@@]2(C)C(C[C@@H](OC(C)=O)[C@@]3(C)C4=CC(=O)O[C@@H](c5ccoc5)[C@]4(C)CCC23)C1(C)C (some centres not stated) to the correct category.
Solution: middle

Problem: Next compound up: CS(=O)(=O)Nc1ccc([N+](=O)[O-])cc1Oc1ccccc1
Solution: top

Problem: Check CN[C@@H]1[C@H](O)[C@H](NC)[C@H]2O[C@@]3(O)C(=O)C[C@@H](C)O[C@H]3O[C@@H]2[C@H]1O too.
Solution: middle

Problem: Now try CC(=O)c1ccc(Cl)c(N=Cc2cc(Br)cc(Br)c2O)c1 .
Solution: bottom

Problem: Same question for CC1=CC(=O)c2ccccc2C1=O please.
Solution: bottom

* * *

Assay explanation: chemical genetic growth profiling, strain panel (AID 1159580)
Experimental conditions: S. cerevisiae deletion strains, growth OD, locus YLR258W, strain gsy2, hits give low values
In all, about 5,500 compounds went through this assay and about 2,000 (36%) were called active. Another 18% or so got no clear call; they are omitted. Some of the results follow.
# note: exactly 1 is not below, so it is no (0); use yes (1) for normalized growth strictly under it

Problem: For the molecule CCN(CC)CCOC(=O)C1(C2CCCCC2)CCCCC1 , is normalized growth under 1?
Solution: yes (1)

Problem: Next record, please: CC12CCC(=O)C=C1CCC1C2[C@@H](O)CC2(C)C1CC[C@]2(O)C(=O)COP(=O)(O)O (stereo not given in full)
Solution: no (0)

* * *

Assay explanation: chemical genetic growth profiling, strain panel (AID 1159580)
Experimental conditions: S. cerevisiae deletion strains, growth OD, locus YPR167C, strain met16, hits give low values
Out of some 5,500 compounds screened, about 2,000 (36%) were called active. About 18% were inconclusive and are not listed. This is one part of the list.
Documented normalized growth across a set of compounds
In your answer, state the number alone without any accompanying words.

// below: answered compounds
[[record]]
compound = "COC(=O)c1c(OC)cc2c(c1C)Oc1c(Cl)c(O)c(Cl)c(C)c1C(=O)O2"
measure = "normalized growth"
value_measured = 0.927

[[record]]
compound = "C[n+]1ccccc1/C=N/O"
measure = "normalized growth"
value_measured = 0.992

[[record]]
compound = "Cc1ccc2c(c1)C1(C)CCCC(C)(C(=O)O)C1CC2 (centres undefined)"
measure = "normalized growth"
value_measured = 0.995


Could you now consider this next compound?
Problem: // normalized growth lookup, key: CC(C)=CCc1c2c(c3occ(-c4ccc(O)cc4)c(=O)c3c1O)C=CC(C)(C)O2
Solution: 0.913

* * *

Assay explanation: chemical genetic growth profiling, strain panel (AID 1159580);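 note: tested at 20 µM; growth read once vehicle control cultures reached saturation at 30 °C; 1 = growth at the plate median or of vehicle wells; lower values mean less growth of the strain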
Experimental conditions: S. cerevisiae deletion strains, growth OD, locus YLR027C, strain aat2, hits give low values
About 2,000 (36%) of roughly 5,500 compounds were called active. Inconclusive results (about 18%) are left out. This is one part of the list.
Measure: normalized growth
Reply: number alone, nothing else.

Example entries and their recorded answers appear below.
[[record]]
compound = "CC(=O)O[C@H]1CC[C@@]2(C)C(=CC(=O)C3C4CCC(C(C)CCCC(C)C)[C@@]4(C)CCC32)C1 (some centres undefined)"
value_measured = 1

[[record]]
compound = "NS(=O)(=O)c1cc2c(cc1Cl)NC(CSCc1ccccc1)=NS2(=O)=O"
value_measured = 1.02


Problem: # lookup: normalized growth of NC1=NCCN1CC(=O)O
Solution: 1.02

Problem: Likewise for CCC(C)[C@H]1O[C@]2(C=C[C@@H]1C)C[C@@H]1C[C@@H](C/C=C(\C)[C@@H](OC3C[C@H](OC)C(O[C@H]4C[C@H](OC)[C@@H](O)[C@H](C)O4)[C@H](C)O3)[C@@H](C)/C=C/C=C3\CO[C@@H]4[C@H](O)C(C)=C[C@@H](C(=O)O1)[C@]34O)O2 (some centres undefined) ?
Solution: 0.936

Problem: Same for CC(C)C[C@@H](CN)CC(=O)O
Solution: 1.02

Problem: Now consider O=C(NCO)c1cccnc1 .
Solution: 1.01

* * *

Assay explanation: chemical genetic growth profiling, strain panel (AID 1159580);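 note: tested at 20 µM; growth read once vehicle control cultures reached saturation at 30 °C; 1 = growth at the plate median or of vehicle wells; lower values mean less growth of the strain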
Experimental conditions: S. cerevisiae deletion strains, growth OD, locus YML032C, strain rad52, hits give low values
The campaign covered roughly 5,500 compounds. About 2,000 (36%) were called active. Not shown: some 18% with an inconclusive outcome. The list shows a part of the results.
List of normalized growth values.
When you answer, write just the number.

Past entries and their recorded results:
[[record]]
molecule = "C=C(C)C1CCC(C)(O)C2CC3OC3(C)C2C1 (stereo unspecified)"
measure = "normalized growth"
value_measured = 1.02

[[record]]
molecule = "CC(CCc1ccccc1)NCC(O)c1ccc(O)c(C(N)=O)c1 (stereo unspecified)"
measure = "normalized growth"
value_measured = 0.996

[[record]]
molecule = "COC(=O)c1c(C)c2c(c(C)c1OC)OC(=O)c1c(C)c(Cl)c(OC)c(Cl)c1O2"
measure = "normalized growth"
value_measured = 1.01


Problem: Look at this molecule and give its reported normalized growth. Cc1cc(=O)oc2cc(O)c(O)cc12
Solution: 0.965

Problem: Same for N=C(N)N
Solution: 0.96

Problem: Also check COC(=O)c1c(OC)cc2c(c1C)Oc1c(Cl)c(OC(C)=O)c(Cl)c(C)c1C(=O)O2
Solution: 1.02

* * *

Assay explanation: chemical genetic growth profiling, strain panel (AID 1159580);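 note: tested at 20 µM; growth read once vehicle control cultures reached saturation at 30 °C; 1 = growth at the plate median or of vehicle wells; lower values mean less growth of the strain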
Experimental conditions: S. cerevisiae deletion strains, growth OD, locus YDR137W, strain rgp1
The whole screen tested about 5,500 compounds, of which about 2,000 (36%) were called active. Not shown: some 18% with an inconclusive outcome. No stated cut-off is given here; in the data, active means normalized growth mostly below about 0.91 (no sharp cut-off); inconclusive means no clear call, values can overlap the other calls; inactive means mostly above about 0.92. The list shows a part of the results.
Pick one: 1 (active), 0 (inactive)

Some entries whose results are on file:
[[record]]
compound = "CN(C)[C@@H]1C(=O)C(C(N)=O)=C(O)[C@@]2(O)C(=O)C3=C(O)c4c(O)ccc(Cl)c4[C@@](C)(O)[C@H]3C[C@@H]12"
label = 0

[[record]]
compound = "CC(Cc1cccc(C(F)(F)F)c1)NCCOC(=O)c1ccccc1 (stereo unspecified)"
label = 0

[[record]]
compound = "NC(Cn1ccc(=O)c(O)c1)C(=O)O (stereo unspecified)"
label = 0

[[record]]
compound = "CC12CCC(=O)C=C1CCC1C2[C@@H](O)CC2(C)C1CC[C@]2(O)C(=O)COP(=O)(O)O (stereo partly specified)"
label = 0

[[record]]
compound = "CCCc1cc(=O)[nH]c(=S)[nH]1"
label = 0


Problem: Test call for this compound, please: C[C@H](CCC(=O)O)[C@H]1CCC2C3C(=O)CC4CC(=O)CC[C@]4(C)C3CC(=O)[C@@]21C (stereo partly specified)
Solution: 0

Problem: Consider next the compound CN(C)CCCN1c2ccccc2CCc2ccccc21 in the same way.
Solution: 0

Problem: Check CN(C)CCCN1c2ccccc2Sc2ccc(C(F)(F)F)cc21 too.
Solution: 1

Problem: What about CNCCCC12CCC(c3ccccc31)c1ccccc12 ?
Solution: 0

Problem: Subsequent entry: Cc1cc(=O)[nH]c(=S)[nH]1
Solution: 0

Problem: Okay, and Cc1nc(N)cc(C[n+]2csc(CCO)c2C)n1 ?
Solution: 0
